Result Type: CC50

Problem: Which measured CC50 belongs to CCOP(=O)(COc1ccc(CC(NC(=O)OC2COC3OCCC23)C(O)CN(CC(C)C)S(=O)(=O)c2ccc(OC)cc2)cc1)OCC (stereo not shown) [drawing 651 R1=OEt R2=OEt] , tested on MT-2 cells?
Solution: 5 to 50 µM

Problem: Which measured CC50 belongs to CCOP(=O)(COc1ccc(C[C@H](NC(=O)O[C@H]2CO[C@H]3OCC[C@H]32)[C@H](O)CN(CC(C)C)S(=O)(=O)c2ccc(OC)cc2)cc1)OCC [Compound 13] , tested on MT-2 cells?
Solution: 50 µM

Problem: Which measured CC50 belongs to CCOC(=O)C(C)OP(=O)(CCNCc1ccc(C[C@H](NC(=O)O[C@H]2CO[C@H]3OCC[C@H]32)[C@H](O)CN(CC(C)C)S(=O)(=O)c2ccc(OC)cc2)cc1)Oc1ccccc1 (stereo partly shown) [drawing 662 R1=Ph R2=Lac-Et] , tested on MT-2 cells?
Solution: > 50 µM

Problem: Which measured CC50 belongs to CCOC(=O)C(CC)OP(=O)(CCNCc1ccc(C[C@H](NC(=O)O[C@H]2CO[C@H]3OCC[C@H]32)[C@H](O)CN(CC(C)C)S(=O)(=O)c2ccc(OC)cc2)cc1)Oc1ccccc1 (stereo partly shown) [drawing 662 R1=Ph R2=Hba-Et] , tested on MT-2 cells?
Solution: 5 to 50 µM

----------
Tested on: wild-type HIV-1 strain IIIB
Protocol Details: microbe, parasite or virus in culture
Assay type: cell-based
Run Parameters: read-out: EC50
pEC50: −log10 of the molar value.
Exercise: state measured pEC50 for each of the compounds provided.

Problem: Quick one: pEC50 for CCOC(=O)[C@H](C)OP(=O)(COc1ccc(C[C@H](NC(=O)O[C@H]2CO[C@H]3OCC[C@H]32)[C@H](O)CN(CC(C)C)S(=O)(=O)c2ccc(COC(=O)[C@H](N)C(C)C)cc2)cc1)Oc1ccccc1 (stereo partly drawn) ?
Solution: 6.30 to 7.30

Problem: Quick one: pEC50 for CCOC(=O)C(C)OP(=O)(COc1ccc(C[C@H](NC(=O)O[C@H]2CO[C@H]3OCC[C@H]32)[C@H](O)CN(CC(C)C)S(=O)(=O)c2ccc(O)cc2)cc1)Oc1ccccc1 (stereo partly drawn) ?
Solution: > 7.30

Problem: Quick one: pEC50 for CCOC(=O)C(CC)OP(=O)(COc1ccc(CC(NC(=O)OC2COC3OCCC23)C(O)CN(CC(C)C)S(=O)(=O)c2ccc(OC)cc2)cc1)Oc1ccccc1 (mixture of isomers) [drawing 659 R1=OPh R2=mix-Hba-Et] ?
Solution: > 7.30

Problem: Quick one: pEC50 for CCCCOC(=O)C(C)OP(=O)(COc1ccc(C[C@H](NC(=O)O[C@H]2CO[C@H]3OCC[C@H]32)[C@H](O)CN(CC(C)C)S(=O)(=O)c2cccc(N)c2)cc1)Oc1ccccc1 (stereo partly drawn) [drawing 763] ?
Solution: 6.30 to 7.30

Problem: Quick one: pEC50 for CCOC(=O)C(C)OP(=O)(COc1ccc(CC(NC(=O)OC2COC3OCCC23)C(O)CN(CC(C)C)S(=O)(=O)c2ccc(OC)cc2)cc1)OCC (stereo not drawn) [drawing 658 R1=OEt R2=Lac-Et] ?
Solution: 6.30 to 7.30

Problem: Quick one: pEC50 for CCOC(=O)C(C)OP(=O)(Cc1ccc(NCC(NC(=O)OC2COC3OCCC23)C(O)CN(CC(C)C)S(=O)(=O)c2ccc(OC)cc2)cc1)Oc1ccccc1 (stereo not drawn) ?
Solution: > 7.30

Problem: Quick one: pEC50 for COc1ccc(S(=O)(=O)N(CC(C)C)C[C@@H](O)[C@H](Cc2ccc(OCP(=O)(O)NC(C)C(=O)O)cc2)NC(=O)O[C@H]2CO[C@H]3OCC[C@H]32)cc1 (stereo partly drawn) [drawing 657 R1=OH R2=Ala-OH] ?
Solution: < 5.30

Problem: Quick one: pEC50 for COc1ccc(S(=O)(=O)N(CC(C)C)C[C@@H](O)[C@H](Cc2ccc(OCP(=O)(OCOC(=O)OC(C)C)OCOC(=O)OC(C)C)cc2)NC(=O)O[C@H]2CO[C@H]3OCC[C@H]32)cc1 [drawing 651 R1=OPoc R2=OPoc] ?
Solution: 5.30 to 6.30

Problem: Quick one: pEC50 for CCOC(=O)[C@H](C)OP(=O)(COc1ccc(C[C@H](NC(=O)O[C@H]2CO[C@H]3OCC[C@H]32)[C@H](O)CN(CC(C)C)S(=O)(=O)c2ccc(OC)cc2)cc1)Oc1cccc(CO)c1 (stereo partly drawn) [drawing 660 R1=OPh-m-CH2OH R2=(S)Lac-Et] ?
Solution: 6.30 to 7.30

----------
System: 48V54V82A
Parameters: species or system HIV-1
Run Parameters: MT-4, 48V54V82A; read-out: Cell-based assay (MT-4) EC50/nM 48V54V82A
Label Condition met when EC50 is strictly below 300 nM; at or above that, label Condition not met.

Problem: Is 300 nM strictly greater than the compound's reported EC50? compound: CCOP(=O)(COc1ccc(C[C@@H]2[C@H](O)[C@@H](O)[C@@H](Cc3ccccc3)N(Cc3cccc(N)c3)C(=O)N2Cc2cccc(N)c2)cc1)OCC
Solution: Condition met

Problem: Is 300 nM strictly greater than the compound's reported EC50? compound: O=C1N(Cc2ccccc2)[C@H](Cc2ccccc2)[C@H](O)[C@@H](O)[C@@H](Cc2ccc(OCP(=O)(OCc3ccccc3)OCc3ccccc3)cc2)N1Cc1ccccc1
Solution: Condition not met

Problem: Is 300 nM strictly greater than the compound's reported EC50? compound: O=C1N(Cc2ccccc2)[C@H](Cc2ccccc2)[C@H](O)[C@@H](O)[C@@H](Cc2ccc(O)cc2)N1Cc1ccccc1
Solution: Condition not met

Problem: Is 300 nM strictly greater than the compound's reported EC50? compound: CCOP(=O)(CCNC(=O)Oc1ccc(C[C@@H]2[C@H](O)[C@@H](O)[C@@H](Cc3ccc(OC)cc3)N(Cc3cccc(N)c3)C(=O)N2Cc2cccc(N)c2)cc1)OCC
Solution: Condition met

Problem: Is 300 nM strictly greater than the compound's reported EC50? compound: CCOC(=O)C(C)OP(=O)(COc1ccc(C[C@@H]2[C@H](O)[C@@H](O)[C@@H](Cc3ccccc3)N(Cc3ccccc3)C(=O)N2Cc2ccccc2)cc1)Oc1ccccc1 (stereo partly drawn)
Solution: Condition not met

Problem: Is 300 nM strictly greater than the compound's reported EC50? compound: CCOC(=O)C(C)NP(=O)(COc1ccc(C[C@@H]2[C@H](O)[C@@H](O)[C@@H](Cc3ccccc3)N(Cc3ccccc3)C(=O)N2Cc2ccccc2)cc1)Oc1ccccc1 (stereo partly drawn)
Solution: Condition not met

Problem: Is 300 nM strictly greater than the compound's reported EC50? compound: O=C1N(Cc2ccccc2)[C@H](Cc2ccccc2)[C@H](O)[C@@H](O)[C@@H](Cc2ccccc2)N1Cc1ccc2[nH]nc(O)c2c1
Solution: Condition not met

Problem: Is 300 nM strictly greater than the compound's reported EC50? compound: CCOP(=O)(CNC(=O)Oc1ccc(C[C@@H]2[C@H](O)[C@@H](O)[C@@H](Cc3ccc(OC)cc3)N(Cc3cccc(N)c3)C(=O)N2Cc2cccc(N)c2)cc1)OCC
Solution: Condition met

Problem: Is 300 nM strictly greater than the compound's reported EC50? compound: O=C1N(Cc2ccccc2)[C@H](Cc2ccccc2)[C@H](O)[C@@H](O)[C@@H](Cc2ccccc2)N1Cc1ccc2[nH]ncc2c1 [drawing 870]
Solution: Condition not met

----------
System: wild-type HIV-1 strain IIIB
Protocol Details: microbe, parasite or virus in culture
Assay type: cell-based
Run Parameters: read-out: EC50
Result Type: EC50

Problem: Quick one: EC50 for COc1ccc(S(=O)(=O)N(CC(C)C)C[C@@H](O)[C@H](Cc2ccc(OCP(=O)(Oc3ccccc3)Oc3ccccc3)cc2)NC(=O)O[C@H]2CO[C@H]3OCC[C@H]32)cc1 [drawing 651 R1=OPh R2=OPh] ?
Solution: < 0.05 µM

Problem: Quick one: EC50 for COc1ccc(S(=O)(=O)N(CC(C)C)CC(O)C(Cc2ccc(O)cc2)NC(=O)OC2COC3OCCC23)cc1 (stereo not shown) ?
Solution: < 0.05 µM

Problem: Quick one: EC50 for CCOC(=O)C(C)OP(=O)(COc1ccc(CC(NC(=O)OC2COC3OCCC23)C(O)CN(CC(C)C)S(=O)(=O)c2ccc(OC)cc2)cc1)Oc1cccc(C(=O)O)c1 [drawing 660 R1=OPh-m-COOH R2=(S)Lac-Et] ?
Solution: 0.05 to 0.5 µM

Problem: Quick one: EC50 for CCOC(=O)C(C)OP(=O)(COc1ccc(CC(NC(=O)OC2COC3OCCC23)C(O)CN(CC(C)C)S(=O)(=O)c2ccc(OC)cc2)cc1)Oc1ccccc1 (stereo not shown) [drawing 661 R1=OPh R2=Lac-Et] ?
Solution: 0.05 to 0.5 µM

Problem: Quick one: EC50 for CCOP(=O)(COc1ccc(C[C@H](NC(=O)O[C@H]2CO[C@H]3OCC[C@H]32)[C@H](O)CN(CC(C)C)S(=O)(=O)c2ccc([N+](=O)[O-])cc2)cc1)OCC ?
Solution: < 0.05 µM

Problem: Quick one: EC50 for CCOC(=O)C(C)OP(=O)(COc1ccc(CC(NC(=O)OC2COC3OCCC23)C(O)CN(CC(C)C)S(=O)(=O)c2ccc(OC)cc2)cc1)Oc1ccccc1OCC [drawing 660 R1=OPh-o-OEt R2=(S)Lac-Et] ?
Solution: < 0.05 µM

Problem: Quick one: EC50 for COc1ccc(S(=O)(=O)N(CC(C)C)CC(O)C(Cc2ccc(OCP(=O)(O)OCc3ccccc3)cc2)NC(=O)OC2COC3OCCC23)cc1 (stereo not shown) [drawing 651 R1=OH R2=OBn] ?
Solution: 0.5 to 5 µM

Problem: Quick one: EC50 for CCOC(=O)C(C)OP(=O)(CN1CC=C(CC(NC(=O)OC2COC3OCCC23)C(O)CN(CC(C)C)S(=O)(=O)c2ccc(OC)cc2)CC1)Oc1ccccc1 (stereo not shown) ?
Solution: > 5 µM

Problem: Quick one: EC50 for CCCCc1ccc(OP(=O)(COc2ccc(C[C@H](NC(=O)O[C@H]3CO[C@H]4OCC[C@H]43)[C@H](O)CN(CC(C)C)S(=O)(=O)c3ccc(OC)cc3)cc2)O[C@@H](C)C(=O)OCC)cc1 (stereo partly drawn) [drawing 660 R1=OPh—p-n-But R2=(S)Lac-Et] ?
Solution: < 0.05 µM

Problem: Quick one: EC50 for CCOP(=O)(CCN1CCN(CC(NC(=O)OC2COC3OCCC23)C(O)CN(CC(C)C)S(=O)(=O)c2ccc(OC)cc2)CC1)OCC (stereo not shown) ?
Solution: 0.05 to 0.5 µM

Problem: Quick one: EC50 for COc1ccc(S(=O)(=O)N(CC(C)C)C[C@@H](O)[C@H](Cc2ccc(OCP(=O)(Oc3ccccc3)OC(C)C(=O)OC(C)C)cc2)NC(=O)O[C@H]2CO[C@H]3OCC[C@H]32)cc1 (single isomer, unassigned) [drawing 658 R1=OPh R2=Lac-iPr] ?
Solution: < 0.05 µM

Problem: Quick one: EC50 for CCOC(=O)[C@H](C)OP(=O)(COc1ccc(C[C@H](NC(=O)O[C@H]2CO[C@H]3OCC[C@H]32)[C@H](O)CN(CC(C)C)S(=O)(=O)c2ccc(OC)cc2)cc1)ON(C)C (stereo partly drawn) [drawing 660 R1=ONMe2 R2=(S)Lac-Et] ?
Solution: 0.05 to 0.5 µM

Problem: Quick one: EC50 for COc1ccc(S(=O)(=O)N(CC(C)C)C[C@@H](O)[C@H](Cc2ccc(OCP(=O)(Oc3ccccc3)O[C@@H](C)C(=O)OCCCN3CCOCC3)cc2)NC(=O)O[C@H]2CO[C@H]3OCC[C@H]32)cc1 (stereo partly drawn) [drawing 659 R1=OPh R2=(S)Lac-PrMor] ?
Solution: > 5 µM

Problem: Quick one: EC50 for CCOC(=O)C(CC)OP(=O)(CCNCc1ccc(C[C@H](NC(=O)O[C@H]2CO[C@H]3OCC[C@H]32)[C@H](O)CN(CC(C)C)S(=O)(=O)c2ccc(OC)cc2)cc1)Oc1ccccc1 (stereo partly shown) [drawing 662 R1=Ph R2=Hba-Et] ?
Solution: 0.05 to 0.5 µM

Problem: Quick one: EC50 for CCOC(=O)C(C)OP(=O)(COc1ccc(CC(NC(=O)OC2COC3OCCC23)C(O)CN(CC(C)C)S(=O)(=O)c2ccc(CN3CCOCC3)cc2)cc1)Oc1ccccc1 (stereo not shown) ?
Solution: 0.05 to 0.5 µM

Problem: Quick one: EC50 for COc1ccc(S(=O)(=O)N(CC(C)C)C[C@@H](O)[C@H](Cc2ccc(OCP(=O)(Oc3ccccc3)O[C@@H](C)C(=O)OCCN3CCOCC3)cc2)NC(=O)O[C@H]2CO[C@H]3OCC[C@H]32)cc1 (stereo partly drawn) [drawing 659 R1=OPh R2=(S)Lac-EtMor] ?
Solution: > 5 µM

Problem: Quick one: EC50 for CCCCOC(=O)CNP(=O)(COc1ccc(C[C@H](NC(=O)O[C@H]2CO[C@H]3OCC[C@H]32)[C@H](O)CN(CC(C)C)S(=O)(=O)c2ccc(OC)cc2)cc1)Oc1ccccc1 (stereo partly shown) [drawing 657 R1=OPh R2=Gly-Ru] ?
Solution: 0.05 to 0.5 µM

Problem: Quick one: EC50 for CCCCOC(=O)C(C)NP(=O)(O)COc1ccc(C[C@H](NC(=O)O[C@H]2CO[C@H]3OCC[C@H]32)[C@H](O)CN(CC(C)C)S(=O)(=O)c2ccc(OC)cc2)cc1 (stereo partly shown) [drawing 657 R1=OH R2=Ala-Bu] ?
Solution: > 5 µM

Problem: Quick one: EC50 for CCOP(=O)(O)COc1ccc(CC(NC(=O)OC2COC3OCCC23)C(O)CN(CC(C)C)S(=O)(=O)c2ccc(OC)cc2)cc1 (stereo not shown) [drawing 651 R1=OH R2=OEt] ?
Solution: 0.05 to 0.5 µM
